tgt: Polyunsaturated fatty acid lipoxygenase ALOX15 (Oryctolagus cuniculus, UniProt P12530)
Sequence (P12530 whole entry): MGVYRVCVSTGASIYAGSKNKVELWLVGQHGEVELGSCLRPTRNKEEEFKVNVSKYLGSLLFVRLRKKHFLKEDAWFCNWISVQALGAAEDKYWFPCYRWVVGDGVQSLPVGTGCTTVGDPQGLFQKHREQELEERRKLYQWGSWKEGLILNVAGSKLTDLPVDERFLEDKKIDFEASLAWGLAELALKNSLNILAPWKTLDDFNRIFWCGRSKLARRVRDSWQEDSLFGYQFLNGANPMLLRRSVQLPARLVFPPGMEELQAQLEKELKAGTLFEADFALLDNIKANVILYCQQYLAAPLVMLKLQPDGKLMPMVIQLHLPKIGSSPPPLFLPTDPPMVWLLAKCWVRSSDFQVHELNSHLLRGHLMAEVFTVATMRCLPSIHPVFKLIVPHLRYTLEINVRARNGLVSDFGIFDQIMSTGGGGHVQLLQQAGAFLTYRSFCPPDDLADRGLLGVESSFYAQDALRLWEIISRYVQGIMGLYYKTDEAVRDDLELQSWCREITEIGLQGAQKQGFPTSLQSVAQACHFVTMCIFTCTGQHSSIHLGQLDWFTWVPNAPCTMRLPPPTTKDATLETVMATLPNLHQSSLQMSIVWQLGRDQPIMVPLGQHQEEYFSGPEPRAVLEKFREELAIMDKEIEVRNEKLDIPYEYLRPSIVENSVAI
method: biochemical
Type: tissue-based, Reticulocytes
assay-setup: reticulocytes

compound	IC50
Cc1c(-c2ccccc2)oc2c(C(=O)OCCN3CCCCC3)cccc2c1=O [FLAVOXATE]	Not Active
CSc1ccc2c(c1)N(CCC1CCCCN1C)c1ccccc1S2 (stereo not drawn) [THIORIDAZINE]	Not Active
CO[C@@H]1[C@@H](O[C@@H]2O[C@H](C)[C@@H](O[C@H]3C[C@@](C)(O)[C@@H](OC(=O)CC(C)C)[C@H](C)O3)[C@H](N(C)C)[C@H]2O)[C@@H](CC=O)C[C@@H](C)[C@@H](O)/C=C/C=C/C[C@@H](C)OC(=O)C[C@H]1O [KITASAMYCIN]	Not Active

* * *

tgt: Platelet-activating factor receptor (Homo sapiens)
Sequence (P25105 whole entry): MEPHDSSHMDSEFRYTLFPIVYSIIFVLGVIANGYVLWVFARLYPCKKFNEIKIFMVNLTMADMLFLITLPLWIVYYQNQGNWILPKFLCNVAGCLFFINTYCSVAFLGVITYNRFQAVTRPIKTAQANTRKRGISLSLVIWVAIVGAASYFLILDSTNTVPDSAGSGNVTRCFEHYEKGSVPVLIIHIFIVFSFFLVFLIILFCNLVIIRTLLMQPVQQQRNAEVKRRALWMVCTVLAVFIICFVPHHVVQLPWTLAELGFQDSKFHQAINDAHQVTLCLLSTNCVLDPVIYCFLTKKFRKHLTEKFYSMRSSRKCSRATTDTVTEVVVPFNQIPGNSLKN
method: biochemical
Type: tissue-based
assay-setup: platelet
endpoint-label: Ki

>>> df
                substance  endpoint_result
0  GOLD SODIUM THIOMALATE       Not Active
1             OXALIPLATIN       Not Active
2              IVERMECTIN       Not Active
3             CARBOPLATIN       Not Active

Turning to the following substance.
// query Given the entry "CISPLATIN" , report its measured Ki.
// result Not Active

* * *

This listing pairs molecules with measured IC50.
method: DRUGMATRIX: Sodium/nucleoside co-transporter radioligand binding (ligand: nitrobenzylthioinosine)
Format: cell membranes, Cavia porcellus, Dunkin-Hartley, Cerebral cortex, Membrane
assay-setup: Not Active = under 50% inhibition at 10 µM; read-out: IC50
Write the number in µM without appending the unit.

>>> print(df.to_string())
                           smiles_structure  unit_annotation  endpoint_result
0  COC(=O)C1=C(C)NC(C)=C(C(=O)OC)C1c1ccccc1[N+](=O)[O-]               µM             23.8

// query Request the reported IC50 associated with "CC(=O)[C@H]1CC[C@H]2[C@@H]3CCC4=CC(=O)CC[C@]4(C)[C@H]3CC[C@]12C"
// result 19.6
